Test system: OVCAR-3
Test: NCI tumour cell line growth inhibition, 48 h
Activity calls are given as the source filed them. Cut-off read from the data, not from the text of the source: active = GI50 up to about 1.1 µM and inactive = higher.
Outcomes you can answer with include only these: label 1 = active, label 0 = inactive

Below are worked cases with known answers.
1. CC(=O)/C(=N\N=C(N)N)c1ccccc1 ... label 0
2. CCOP(=O)(OCC)C1(O)CC(n2cc(C)c(=O)[nH]c2=O)OC1CO (stereo unspecified) ... label 0
3. CCOC(CNCCC(=O)OC)OCC ... label 0
4. CN(Cc1cnc2nc(N)nc(N)c2n1)c1ccc(C(=O)NC(CCC(=O)O)C(=O)O)cc1 (stereo unspecified) ... label 1
5. CC1=NOC(=O)/C1=C/c1ccc2c(c1)OCO2 ... label 0

Query :: Any idea what this test logged for CC(C)(C)OC(=O)N1CCCC1C(=O)NC(c1ccccc1)c1ccccc1 (stereo unspecified) ?
Result :: label 0

Query :: Per the assay record, what outcome was assigned to O=C(/C=C/c1cccs1)c1ccc(C(=O)/C=C/c2cccs2)cc1 ?
Result :: label 0
